Origin of the recorded values: patent US6344562B1

Counter-ions that a name gives are not always drawn.
parameter: melting point (°C)

[
  {
    "molecule": "N=C(N)Nc1nc(C(=O)Nc2cccc(C(=O)NC(CC(=O)O)c3ccccc3)c2)cs1 (racemic) [Example 19]",
    "value_unit": "°C",
    "melting point": 235
  },
  {
    "molecule": "COC(=O)CCCCCNC(=O)c1csc(NC(=O)NCc2ccccc2)n1 [Example 137]",
    "value_unit": "°C",
    "melting point": 140
  },
  {
    "molecule": "O=C(O)CCNC(=O)c1cccc(NC(=O)c2csc(NC(=O)NCc3ccccc3)n2)c1 [Example 170]",
    "value_unit": "°C",
    "melting point": 157
  },
  {
    "molecule": "O=C(O)C[C@H](NC(=O)CNC(=O)c1csc(NC(=O)NCc2ccccc2)n1)C(=O)NCc1cccnc1 (as salt: trifluoroacetate) [Example 164]",
    "value_unit": "°C",
    "melting point": 135
  },
  {
    "molecule": "Cc1nc(NC(=N)N)sc1C(=O)NCCCCC(CC(=O)O)c1ccccc1 (racemic) [Example 85]",
    "value_unit": "°C",
    "melting point": 125
  },
  {
    "molecule": "O=C(O)CCCCCNC(=O)c1csc(NC(=O)NCc2ccccc2)n1 [Example 138]",
    "value_unit": "°C",
    "melting point": 178
  }
]

* * *

Where a name gives a salt, the structure may show the parent alone.
Recorded melting point values for a group of molecules are listed next.

[
  {
    "molecule": "CCOC(=O)CC(NC(=O)CNC(=O)c1csc(N=C2NCCN2)n1)c1cccnc1 (racemic) [Example 171]",
    "melting point": "198 to 199 °C"
  },
  {
    "molecule": "CCOC(=O)CCCC(=O)CNC(=O)c1csc(NC(=O)NCc2ccccc2)n1 [Example 82]",
    "melting point": "135 to 136 °C"
  },
  {
    "molecule": "CCOC(=O)CC(NC(=O)CCNC(=O)c1sc(NC(=N)N)nc1C)c1ccccc1 (racemic) [Example 26]",
    "melting point": "106 to 107 °C"
  }
]

Kindly consider the entry below.
Query block: Report melting point, nothing else, for this molecule: CC(C)(C)OC(=O)C[C@H](NC(=O)CNC(=O)c1csc(NC(=O)NCc2ccccc2)n1)C(=O)OC(C)(C)C (as salt: succinate) [Example 157]
Result block: 111 to 114 °C
